- target.or.system: Adenosine receptor A3 (Rattus norvegicus)
- Sequence (P28647 whole entry): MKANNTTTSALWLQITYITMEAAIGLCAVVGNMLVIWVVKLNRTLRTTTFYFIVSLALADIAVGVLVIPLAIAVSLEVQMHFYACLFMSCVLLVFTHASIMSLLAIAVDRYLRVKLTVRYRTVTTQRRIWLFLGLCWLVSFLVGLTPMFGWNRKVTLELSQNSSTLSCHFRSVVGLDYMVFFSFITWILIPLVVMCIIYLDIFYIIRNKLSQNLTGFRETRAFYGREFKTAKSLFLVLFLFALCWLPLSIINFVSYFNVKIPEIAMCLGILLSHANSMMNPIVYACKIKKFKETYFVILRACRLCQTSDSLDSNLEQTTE
measured.parameter: Ki (nM)
Field format: number, assumed nM, no unit text.

Summary for this compound, Nc1ccc(CCNc2ncnc3c2ncn3C2O[C@H](CO)[C@@H](O)[C@H]2O)cc1I (stereo partly specified) : Ki is 15.5
